Measured cytotoxicity at 70.5 h of individual entries
- experimentSummary: Human HepG2 cell viability assay in 384 well format
- Type: toxicity, cell-based
- Set-up: dose 125 nL, time 70.5 hour; concentration not given beside the values
- testParameters: HepG2 cells, read-out: Inhibition

Consider the worked cases shown below.
molecule: CCCNC(c1cccnc1)c1ccc(F)c(C)c1 (stereo not drawn)
cytotoxicity at 70.5 h: -13.4%

molecule: Cc1cccc(NC2CCN(C(=O)Nc3cccc4[nH]ccc34)CC2)n1
cytotoxicity at 70.5 h: -8.86%

molecule: NC(=O)CCN1C(=O)CC(Cc2ccc(F)cc2)C1=O (stereo not drawn)
cytotoxicity at 70.5 h: -11.2%

molecule: Cc1nc(Nc2ncccn2)cc(C2CCCN2Cc2ncc[nH]2)n1 (stereo not drawn)
cytotoxicity at 70.5 h: -2.88%

input: Could you share which cytotoxicity at 70.5 h value was measured for `CCc1ccc(CN2CCN(CCOC)[C@@H]3CS(=O)(=O)C[C@@H]32)cc1` ?
output: 1.39%

input: Could you share which cytotoxicity at 70.5 h value was measured for CC(C)c1nc(CN2CCN(CC(O)c3ccccc3)CC2)no1 (stereo not drawn) ?
output: -4.77%

input: Could you share which cytotoxicity at 70.5 h value was measured for `Cc1cnc(N2CCC3(CCN(CC4CCCC4)C3=O)CC2)nc1` ?
output: -11%

input: Could you share which cytotoxicity at 70.5 h value was measured for Cc1ccc2oc(C(=O)N3CCCC(n4ccnc4C)C3)cc2n1 (stereo not drawn) ?
output: 0.879%

input: Could you share which cytotoxicity at 70.5 h value was measured for CNC(=O)C1=NOC2(CCN(Cc3nccs3)C2)C1 (stereo not drawn) ?
output: -3.01%

input: Could you share which cytotoxicity at 70.5 h value was measured for CN(CC(=O)Nc1ccncc1)CC1CCCN1c1cccnn1 (stereo not drawn) ?
output: -11.4%

input: Could you share which cytotoxicity at 70.5 h value was measured for CCCc1noc(CCC(=O)N2CCCCC2Cn2cc(C)cn2)n1 (stereo not drawn) ?
output: -13.5%

input: Could you share which cytotoxicity at 70.5 h value was measured for `CC(C)Cc1nc(CSCC(=O)N2CCC(C)CC2)no1` ?
output: 3.72%
